Some sequences, each annotated with its measured shrunken log2 fold change.
# System: Escherichia coli TOP10
# test_details: shrunken log2 fold change of peptide-encoding DNA abundance (4.5 h post-induction vs induction); higher = less antimicrobial activity (less host growth inhibition)
# study_conditions: time post-induction: 4.5 h; library: site-saturation at positions 5, 18, 19, 20
Answer as a number with no unit attached.

Below: 4 sequences and their reported shrunken log2 fold change.
Item RRIRPRPPRLPRPRPRPKRKPRP was tested on Escherichia coli TOP10; the reported shrunken log2 fold change is 0.238

Item RRIRYRPPRLPRPRPRPWMGPRP was tested on Escherichia coli TOP10; the reported shrunken log2 fold change is -0.294

Item RRIRPRPPRLPRPRPRPWPMPRP was tested on Escherichia coli TOP10; the reported shrunken log2 fold change is -0.151

Item RRIRKRPPRLPRPRPRPINWPRP was tested on Escherichia coli TOP10; the reported shrunken log2 fold change is 0.0577

Others:
Item RRIRQRPPRLPRPRPRPLWNPRP was tested on Escherichia coli TOP10; the reported shrunken log2 fold change is -0.245

Item RRIRFRPPRLPRPRPRPQDGPRP was tested on Escherichia coli TOP10; the reported shrunken log2 fold change is 0.0293

Item RRIRLRPPRLPRPRPRPEWHPRP was tested on Escherichia coli TOP10; the reported shrunken log2 fold change is 0.222

Item RRIRNRPPRLPRPRPRPGQSPRP was tested on Escherichia coli TOP10; the reported shrunken log2 fold change is 0.108

---

# Tested on: Escherichia coli TOP10
# test_details: shrunken log2 fold change of peptide-encoding DNA abundance (4.5 h post-induction vs induction); higher = less antimicrobial activity (less host growth inhibition)
# study_conditions: time post-induction: 4.5 h; library: site-saturation at positions 5, 18, 19, 20
Some sequences, each annotated with its measured shrunken log2 fold change.

Sample RRIRGRPPRLPRPRPRPSTGPRP ; shrunken log2 fold change observed: -0.0729

Sample RRIRSRPPRLPRPRPRPTMPPRP ; shrunken log2 fold change observed: 0.0349

Sample RRIRWRPPRLPRPRPRPCFGPRP ; shrunken log2 fold change observed: -0.119

Sample RRIRQRPPRLPRPRPRPTTFPRP ; shrunken log2 fold change observed: -0.485

---

Some sequences, each annotated with its measured shrunken log2 fold change.
# Tested on: Escherichia coli TOP10;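 also: peptides expressed intracellularly from a pBAD plasmid library in pooled LB shake-flask culture, induced with 0.3% L-arabinose, DNA abundance read by NGS, three biological replicates, DESeq2 with apeglm shrinkage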
# test_details: shrunken log2 fold change of peptide-encoding DNA abundance (4.5 h post-induction vs induction); higher = less antimicrobial activity (less host growth inhibition)
# study_conditions: time post-induction: 4.5 h; library: site-saturation at positions 5, 18, 19, 20
Answer as a number with no unit attached.

Below: 8 sequences and their reported shrunken log2 fold change.
Sample RRIRHRPPRLPRPRPRPTIYPRP ; shrunken log2 fold change observed: -0.254

Sample RRIRFRPPRLPRPRPRPTHWPRP ; shrunken log2 fold change observed: 0.44

Sample RRIRYRPPRLPRPRPRPCHCPRP ; shrunken log2 fold change observed: -0.0269

Sample RRIRRRPPRLPRPRPRPWQVPRP ; shrunken log2 fold change observed: 0.0694

Sample RRIRCRPPRLPRPRPRPQHVPRP ; shrunken log2 fold change observed: -0.199

Sample RRIRRRPPRLPRPRPRPCGYPRP ; shrunken log2 fold change observed: 0.0658

Sample RRIRLRPPRLPRPRPRPLNIPRP ; shrunken log2 fold change observed: -0.221

Sample RRIRSRPPRLPRPRPRPHVNPRP ; shrunken log2 fold change observed: -0.259

Others:
Sample RRIRFRPPRLPRPRPRPGSIPRP ; shrunken log2 fold change observed: -0.235

Sample RRIRARPPRLPRPRPRPCEDPRP ; shrunken log2 fold change observed: 0.693

Sample RRIRHRPPRLPRPRPRPVEGPRP ; shrunken log2 fold change observed: 0.105

Sample RRIRIRPPRLPRPRPRPHLFPRP ; shrunken log2 fold change observed: -0.359

Sample RRIRGRPPRLPRPRPRPDSHPRP ; shrunken log2 fold change observed: 0.0299

Sample RRIRIRPPRLPRPRPRPVTFPRP ; shrunken log2 fold change observed: -0.00574

Sample RRIRKRPPRLPRPRPRPEVPPRP ; shrunken log2 fold change observed: 0.539
